# Test system: MDA-MB-435
# TEST SUMMARY: NCI tumour cell line growth inhibition, 48 h
The following molecules are shown together with reported TGI values.

Recorded results for 8 molecules are shown here.
CC1CN=C(c2ccc3c(c2)Cc2cc(C4=NCC(C)N4)ccc2-3)N1 (centres undefined) : 63.9 µM
COc1cc(/C=C/C(=O)OC[C@]23O[C@H]2[C@@H](OC2OC(C)C(O)C(O)C2O)C2C=CO[C@@H](OC4OC(CO)C(O)C(O)C4O)C23)ccc1O (some centres undefined) : > 100 µM
O=C1OS2(OC(=O)c3cccc4cccc2c34)c2ccccc21 (centres undefined) : > 100 µM
CCOC(=O)C(C(N)=O)c1nc2cc([N+](=O)[O-])ccc2nc1/C=C(\O)c1ccc(C)cc1 (centres undefined) : > 100 µM
Cc1cc2nc(N)n[n+]([O-])c2cc1C : > 100 µM
Cc1ccc(N=c2oc3c(ccc4ccccc43)nc2Nc2ccc(C)cc2)cc1 : > 100 µM
C=C1CN(C(=O)c2cc3cc(OC)c(OC)c(OC)c3[nH]2)c2cc([N+](=O)[O-])ccc21 : > 100 µM
C=CCn1c(-c2ccc(N=NNc3ccc(-c4n[nH]c(=S)n4CC=C)cc3)cc2)n[nH]c1=S : > 100 µM

Turning to the following molecule.
Reported TGI for `COc1ccc(NC(=O)c2cc(NC(=O)/C=C/c3ccccc3)c(OC)c(OC)c2)cc1` : what is it?
9.38 µM

====

# Test system: SR leukemia
# TEST SUMMARY: NCI tumour cell line growth inhibition, 48 h
TEST READOUT: TGI

O=C(CSCC(=O)N/N=C/c1ccc(F)cc1)N/N=C/c1ccc(F)cc1 : > 100 µM
CCSc1sc(-c2ccc(C)cc2)nc1[P+](c1ccccc1)(c1ccccc1)c1ccccc1 : 3.47 µM
COc1cc(CNc2nc3cc(C(F)(F)F)ccc3nc2C(=O)O)cc(OC)c1OC : > 100 µM

Return reported TGI; argument: COC(=O)C1=C(O)C(C(=O)OC)[C@@]2(O)[C@@H](C(=O)OC)C(c3ccccc3C(F)(F)F)C[C@@H]1[C@@H]2C(=O)OC (some centres undefined)
62.4 µM

Suppose we examine the compound CC(=O)OCC1OC(n2c(-c3ccc(N)cc3)cc(-c3ccco3)c(C#N)c2=O)C(OC(C)=O)C(OC(C)=O)C1OC(C)=O (centres undefined) ; what TGI value has been reported?
> 50 µM

====

# Tested on: NCI-H522 lung
# TEST SUMMARY: NCI tumour cell line growth inhibition, 48 h; in the data active means GI50 below about 0.43 µM; inactive means the rest
Outcome (select one): class 1 = active, class 0 = inactive

Oc1ccc(Br)cc1CN1CCN(Cc2ccc(Cl)cc2)CC1 : class 0
O=C(NCCc1ccccc1)C(c1csc2ccccc12)N(C(=O)CCl)c1ccc(-c2cnco2)cc1 (stereo not drawn) : class 1
COC(=O)c1ccc2c(c1)[n+](=O)c(C(C)=O)c(C(F)(F)F)n2[O-] : class 0
CN1CCN(c2nc(NCCNc3ccnc4cc(Cl)ccc34)c3ccccc3n2)CC1 : class 0
COc1cc(Oc2cnc3cc(N)cc(N)c3n2)cc(OC)c1OC : class 0

How was Nc1nc(Cl)cc2c1ncn2C1OC(CO)C(O)C1O (stereo not drawn) classified in this test?
class 0

Please share the test call associated with N#CC1=C(N)Oc2c(sc3c(F)cccc23)C1c1ccc(Cl)cc1 (stereo not drawn) .
class 0

Hi team, can someone confirm the assay call for `COc1ccc(-n2cc(-c3ccc(Cl)cc3)[nH]c2=S)cc1Cl` ?
class 0

====

# System: EKVX NSCLC
# TEST SUMMARY: NCI tumour cell line growth inhibition, 48 h
Where a SMILES comes first, the peptide text is derived from it. The star is where a group is joined. Boc = CC(C)(C)OC(=O)*; OBn = c1ccc(CO*)cc1; Bn = c1ccc(C*)cc1
TEST READOUT: TGI

CC(=O)c1c[nH]c2ccc(-c3ccnc(Nc4ccc(NC(=O)c5cccc(F)c5)c(CN5CCOCC5)c4)n3)cc12 : 1.52 µM
COc1ccc(/C(C#N)=C/c2nc3c(N4CCOCC4)nc(Cl)nc3n2C)cc1OC : 2.76 µM
O=C(/C=C(\O)C(=O)O)/C=C(\O)c1ccc(Cl)cc1 : > 100 µM
CC1(C)OC2C(CO)OC(/N=C(\NC#N)Oc3ccccc3)C2O1 (stereo not given) : > 100 µM
COc1cc(C2CC(c3ccc(C)cc3)=NN2C(C)=O)ccc1Oc1ccnc2cc(Cl)ccc12 (stereo not given) : > 100 µM

For the compound shown here, CC(C)CC(NC(=O)C(CCC(=O)OCc1ccccc1)NC(=O)OC(C)(C)C)C(=O)NC(COCc1ccccc1)C(=O)NC(Cc1ccccc1)C(=O)O (stereo not given) (Boc-E(OBn)LS(Bn)F-OH; configuration not given here) , give the reported TGI.
> 100 µM

Entry `C=C1CN(C(=O)c2cc3cc(OC)c(OC)c(OC)c3[nH]2)c2cc([N+](=O)[O-])ccc21` : reported TGI = ?
> 100 µM

I have this compound here, COc1cc2c3c(c1OC)C1(C=CC(=O)C=C1)CC3N(C(=O)OC(C)(C)C(Cl)(Cl)Cl)CC2 (stereo not given) , and I need its recorded TGI.
45.2 µM

// TGI lookup, key: `O=C(O)C(=O)/C=C\c1ccc(Cl)cc1`
> 100 µM

Please report the recorded TGI for NC1=CN2c3ccccc3N(CC(=O)N3CCOCC3)C2C=C1 (stereo not given) .
> 100 µM

Requested read-out: TGI. Entry: Nc1nc(Cl)cc2c1ncn2C1OC(CO)C(O)C1O (stereo not given)
> 100 µM

Record request: TGI value, item `COc1ccc(OC)c(-c2cc(-c3ccc(Cl)cc3)nn2-c2ccc(S(N)(=O)=O)cc2)c1`
27.5 µM

What value of TGI has been recorded for this entry: O=C(O)C(C1NCCS1)N1Cc2ccccc2C1 (stereo not given)
> 100 µM

Which value of TGI has been reported for `COc1cc(CNc2nc3cc(C(F)(F)F)ccc3nc2C(=O)O)cc(OC)c1OC` in the records?
57.1 µM

Look up TGI: `Clc1cc(Cl)c2n[se]nc2c1`
> 100 µM

Name the recorded TGI for `O=C(CCCCCCCCC(=O)OCCCn1cc(C(=O)NC(=O)OCc2ccccc2)c(=O)[nH]c1=O)OCCCn1cc(C(=O)NC(=O)OCc2ccccc2)c(=O)[nH]c1=O` .
> 100 µM

Suppose we examine the compound `N.N.NCCCCN.O=C([O-])CCl.O=C([O-])CCl.O=C([O-])CCl.O=C([O-])CCl.[Pt+4].[Pt+4]` ; what TGI value has been reported?
> 50 µM

Reported TGI, compound `CCOC(=O)C(=C=Cc1cccs1)C(=O)c1ccccc1` : ____
31 µM

Fill in: TGI of `C=CCn1c(-c2ccc(N=NNc3ccc(-c4n[nH]c(=S)n4CC=C)cc3)cc2)n[nH]c1=S` is ___
> 100 µM

Which TGI is listed for O=C(CC1Sc2ccccc2NC1=O)Nc1ccc([N+](=O)[O-])cc1[N+](=O)[O-] (stereo not given) ?
69.2 µM

====

# Test system: SF-295 CNS
# TEST SUMMARY: NCI tumour cell line growth inhibition, 48 h
# reported TGI; entries follow

COc1ccccc1NC(=O)CC(=O)NNCC(=O)Nc1nc(-c2ccccc2)cs1 : > 100 µM

API: value(readout= TGI, system= SF-295 CNS, query= `NC(=O)NC1=NCCC(=O)N1CCc1c[nH]c2ccccc12` )
> 100 µM

Give SF-295 CNS TGI for `O=C(/C=C/c1ccco1)c1ccc(Nc2ccnc3cc(Cl)ccc23)cc1`
> 100 µM

What value of TGI on SF-295 CNS does O=C(CC1Sc2ccccc2NC1=O)Nc1ccc([N+](=O)[O-])cc1[N+](=O)[O-] (stereo not given) have?
34.2 µM

Request - read-out TGI | tested on SF-295 CNS | compound `CC(=O)Nc1ccc(S(=O)(=O)/N=c2/sc(S(N)(=O)=O)nn2C)cc1`
> 100 µM

Short answer please: TGI, SF-295 CNS, entry `O=C(/C=C(\O)C(=O)O)/C=C(\O)c1ccc(Cl)cc1`
> 100 µM

Reported TGI for SF-295 CNS, given `COC(=O)c1ccc2c(c1)[n+](=O)c(C(C)=O)c(C(F)(F)F)n2[O-]` ?
2.78 µM

// fetch SF-295 CNS TGI for `Cc1cc2nc(N)n[n+]([O-])c2cc1C`
> 100 µM

# get_value(readout= TGI, system= SF-295 CNS) for CCC(C)CNC1=C(NC(C)=O)C(=O)c2ccccc2C1=O (stereo not given)
> 100 µM

Tell me reported TGI for `COc1ccc(CNCCN2C(=O)c3ccc4c5c(ccc(c35)C2=O)C(=O)N(CCNCc2ccc(OC)cc2)C4=O)cc1` , tested with SF-295 CNS.
1.83 µM

What value of TGI on SF-295 CNS does COC(=O)C(=O)C(C(=O)C(=O)Nc1ccc(Cl)cc1Cl)c1nc2ccc(Cl)cc2[nH]c1=O (stereo not given) have?
> 100 µM

Form field: TGI recorded for Cc1cc(C)c2c(=O)n(CC(O)CN3CCN(c4ncccn4)CC3)sc2n1 (stereo not given) with SF-295 CNS (enter value)
> 100 µM

Report TGI for O=C1N2CCN=C2c2ccccc2C1(O)c1ccccc1 (stereo not given) tested on SF-295 CNS.
> 100 µM

What measured TGI is associated with `Clc1cc(Cl)c2n[se]nc2c1` on SF-295 CNS?
> 100 µM

Hello, I am looking for reported TGI with SF-295 CNS for `CC(=O)c1c[nH]c2ccc(-c3ccnc(Nc4ccc(NC(=O)c5cccc(F)c5)c(CN5CCOCC5)c4)n3)cc12` . Could you help?
1.75 µM

Fill in the recorded TGI for this compound, with SF-295 CNS as test system: `CC(CCC(=O)O)(c1cc(Br)c(O)c(Br)c1)c1cc(Br)c(O)c(Br)c1`
> 100 µM

Which TGI is reported with SF-295 CNS for this entry: `CCNc1nc2ccccc2nc1NCC` ?
> 100 µM

Notebook: pull reported TGI for SF-295 CNS, entry `S=c1sc2ccccc2n1CN1CCN(Cc2ccccc2)CC1`
> 100 µM

Find TGI (SF-295 CNS) for the entry C/C(=C/CC[C@](C)(OC1OC(CO)C(O)C(O)C1OC1OC(C)C(O)C(O)C1O)[C@H]1CC[C@]2(C)[C@@H]1CC[C@@H]1[C@@]3(C)CC[C@H](O)C(C)(C)[C@@H]3C[C@H](O)[C@]12C)CO (stereo not given in full)
> 100 µM

Query the reported TGI for SF-295 CNS; item: `CCCc1c(OC)c(O)c2c(=O)cc(OC)c3c4c(OC)cc(=O)c5c(O)c(OC)c(CCC)c(c1c23)c54`
31.6 µM

// provenance: PubChem BioAssay (NCI)
